test system: Euschistus heros (Neotropical Brown Stink Bug); experiment: Example B3: Euschistus heros, sprayed soybean leaves, N2 nymphs; type: in vivo; settings: 120 h, application rate of 200 ppm, 5 days after infestation, read-out: effect in at least one of the two categories (mortality or growth inhibition)
readoutType: percent effect (mortality or growth inhibition) at 200 ppm

* CCS(=O)(=O)c1cc(-c2ccc(Cl)cc2)sc1-c1nc2cc(C(F)(F)F)ncc2n1C [Example P-5] | ≥ 80%
* CCS(=O)(=O)c1cc(-n2ccc(C(F)(F)F)n2)sc1-c1nc2cc(C(F)(F)F)ncc2n1C [Example P-2] | ≥ 80%
* CCSc1cc(-c2ccc(Cl)cc2)sc1-c1nc2cc(C(F)(F)F)ncc2n1C [Example P-6] | ≥ 80%
* CCS(=O)(=O)c1cc(I)sc1-c1nc2cc(SC(F)(F)F)ncc2n1C [Example I-8] | ≥ 80%
* CCS(=O)(=O)c1nc(-n2ccc(C(F)(F)F)n2)sc1-c1nc2cc(C(F)(F)F)ncc2n1C [Example P-10] | ≥ 80%
* CCS(=O)(=O)c1cc(-c2ccc(C(F)(F)F)cc2)sc1-c1nc2cc(C(F)(F)F)ncc2n1C [Example P-1] | ≥ 80%
* CCS(=O)(=O)c1cc(-n2ccc(C(F)(F)F)n2)sc1-c1nc2cc(C(F)(F)F)nnc2n1C [Example P-12] | ≥ 80%

###

Tested on: Euschistus heros (Neotropical Brown Stink Bug)
Experiment: Example B3: Euschistus heros, sprayed soybean leaves, N2 nymphs
Assay type: in vivo
Conditions: 120 h, application rate of 200 ppm, 5 days after infestation, read-out: effect in at least one of the two categories (mortality or growth inhibition)
Experimental: Example B3: Euschistus heros (Neotropical Brown Stink Bug) Soybean leaves on agar in 24-well microtiter plates were sprayed with aqueous test solutions prepared from 10,000 ppm DMSO stock solutions. After drying the leaves were infested with N2 nymphs. The samples were assessed for mortality and growth inhibition in comparison to untreated samples 5 days after infestation. […]
List of percent effect (mortality or growth inhibition) at 200 ppm values.
readoutType: percent effect (mortality or growth inhibition) at 200 ppm

* CCSc1c(-c2nc3cc(C(F)(F)F)ncc3n2C)sc(-c2ccc(Cl)cc2)c1Cl [Example P-7] | ≥ 80%
* CCS(=O)(=O)c1cc(-c2ccc(Cl)cc2)sc1-c1nc2cc(SC(F)(F)F)ncc2n1C [Example P-15] | ≥ 80%
* CCS(=O)(=O)c1cc(-c2ccc(Cl)cc2)sc1-c1nc2cc(C(F)(F)F)nnc2n1C [Example P-18] | ≥ 80%
* CCSc1cc(I)sc1-c1nc2cc(SC(F)(F)F)ncc2n1C [Example I-7] | ≥ 80%
* CCS(=O)(=O)c1cc(-c2ncccn2)sc1-c1nc2cc(SC(F)(F)F)ncc2n1C [Example P-16] | ≥ 80%
* CCS(=O)(=O)c1nc(-c2ccc(Cl)cc2)sc1-c1nc2cc(C(F)(F)F)ncc2n1C [Example P-4] | ≥ 80%
* CCS(=O)(=O)c1sc(-n2ccc(C(F)(F)F)n2)nc1-c1nc2cc(C(F)(F)F)ncc2n1C [Example P-20] | ≥ 80%
* CCS(=O)(=O)c1sc(C2CC2)nc1-c1nc2cc(C(F)(F)F)ncc2n1C [Example P-22] | ≥ 80%

###

readoutType: melting point

- CCSc1cc(-c2ccc(Cl)cc2)sc1-c1nc2cc(C(F)(F)F)nnc2n1C: 205 to 207 °C
- CCSc1nc(-c2ncccn2)sc1-c1nc2cc(C(F)(F)F)ncc2n1C: 230 to 232 °C
- CCSc1cc(I)sc1-c1nc2cc(C(F)(F)F)ncc2n1C: 61 to 63 °C
- CCS(=O)(=O)c1nc(Br)sc1-c1nc2cc(C(F)(F)F)ncc2n1C: 248 to 250 °C
- CCS(=O)(=O)c1ncsc1-c1nc2cc(C(F)(F)F)ncc2n1C: 169 to 171 °C

Taken from patent US10125139B2.
